Assay: Neuroprotective activity in human SH-SY5Y cells assessed as reduction of H2O2-induced apoptosis at 25 uM after 24 hrs by MTT assay relative to control
Format: functional, cell-based
Parameters: scale not given: the % may be the effect or the level left
So basically, if Activity comes in under 50% it's 1.0, and if it's 50% or more it's 0.0.

{"columns": ["compound-smiles", "discrete-label"],
 "data": [
  ["COc1cc(C(=O)OCCCCCCNC(=N)NCCS)cc(OC)c1O", 0.0],
  ["COc1cc(C(=O)OCCCCCNC(=N)NCCS)cc(OC)c1O", 0.0],
  ["COc1ccc(C(=O)OCCCCNC(=N)NCCS)cc1", 1.0],
  ["N=C(NCCS)NCCCO", 0.0]
]}

---

Assay: Cytotoxicity against human SH-SY5Y cells at 5 to 100 uM by MTT assay
Format: cell-based
measure: Activity

{"columns": ["molecule", "reported-measurement"],
 "data": [
  ["N=C(NCCS)NCCCCCCO", "Non-toxic"],
  ["N=C(NCCS)NCCCCCO", "Non-toxic"],
  ["COc1cc(C(=O)OCCCCNC(=N)NCCS)cc(OC)c1OC", "Non-toxic"],
  ["COc1cc(C(=O)OCCCCCCNC(=N)NCCS)cc(OC)c1O", "Non-toxic"],
  ["N=C(NCCS)NCCCO", "Non-toxic"],
  ["N=C(NCCS)NCCCN", "Non-toxic"],
  ["COc1cc(OC)cc(C(=O)OCCCCNC(=N)NCCS)c1", "Non-toxic"],
  ["COc1cc(C(=O)OCCCCCNC(=N)NCCS)cc(OC)c1O", "Non-toxic"],
  ["COc1ccc(C(=O)OCCCCNC(=N)NCCS)cc1", "Non-toxic"],
  ["COc1cc(C(=O)OC2CCC(NC(=N)NCCS)CC2)cc(OC)c1O (centres undefined)", "Non-toxic"],
  ["CC(CO)NC(=N)NCCS (centres undefined)", "Non-toxic"],
  ["N=C(NCCO)NCCS", "Non-toxic"],
  ["COc1cc(C(=O)OCCCCNC(=N)NCCS)cc(OC)c1O", "Non-toxic"],
  ["CC(O)CNC(=N)NCCS (centres undefined)", "Non-toxic"]
]}

---

Test: Neuroprotective activity in human SH-SY5Y cells assessed as reduction of H2O2-induced apoptosis at 5 uM after 24 hrs by MTT assay relative to control
Format: functional, cell-based
Set-up: scale not given: the % may be the effect or the level left
Each entry below carries its recorded Activity.

{"columns": ["compound", "Activity (%)"],
 "data": [
  ["COc1cc(C(=O)OCCCCNC(=N)NCCS)cc(OC)c1O", 60.7],
  ["N=C(NCCS)NCCCO", 67.2],
  ["COc1cc(C(=O)OC2CCC(NC(=N)NCCS)CC2)cc(OC)c1O (stereo not drawn)", 76.4]
]}

---

Assay: Neuroprotective activity in human SH-SY5Y cells assessed as reduction of H2O2-induced apoptosis at 25 uM after 24 hrs by MTT assay relative to control
Format: functional, cell-based
Parameters: scale not given: the % may be the effect or the level left
In this section, each of the compounds is paired with its reported Activity.
measure: Activity (%)

{"columns": ["compound-smiles", "reported-measurement"],
 "data": [
  ["COc1cc(C(=O)OCCCCNC(=N)N)cc(OC)c1O", 38.5],
  ["N=C(NCCS)NCCCCCCO", 55.5],
  ["N=C(NCCS)NCCCN", 84.3]
]}
